Provenance of the data: the supplement of paper PMC12042874

assay: amyloid nucleation score (Sup35N fusion, yeast selection) (log enrichment); library NNK2; higher = more nucleation; inactive = no reads after selection;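 also: zero at mode of non-aggregating sequences after 7 days selection at 30°C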

# Entry sequence, amyloid nucleation score
records = [
    ("INQFIFGTKRMSKNYVSMVR", "inactive"),
    ("NFNMYGVFCVY", "inactive"),
    ("HFIIYYDSYNTMVIGEFAVQ", "inactive"),
]

###

test: amyloid nucleation score (Sup35N fusion, yeast selection) (log enrichment); library NNK3; higher = more nucleation; inactive = no reads after selection
Quantity measured: amyloid nucleation score

# Substance, amyloid nucleation score
measured = [
    ("TDILLYMIFVLHVVSNGVLG", "inactive"),
    ("DFGSDSVDRIPRTGADNSI", "inactive"),
    ("LSDYLGYDG", "inactive"),
    ("YSRSQTMSTACNVVYVFSGQ", "inactive"),
    ("RSNYRGYFK", -0.498),
    ("THEHMRHC", "inactive"),
    ("FGSHYSFRIQKVFFAVQRSP", 2.41),
    ("VMCMCCISVHSTLMFLDITN", 2.85),
]

# per-item lookup of amyloid nucleation score; items listed below
1. AGRDIIMYNRAWFNISAA
2. DISSILVNTWLFDWKLNP
3. VNDVLASLTLCMWLVEWGMK
4. ELLSCLKIWDIL
5. YYFRRWGHS
6. YNFECLIFWSVKYLVCQHIT
7. WETLLKPWQA

[reply]
["inactive", "inactive", "inactive", "inactive", "inactive", "inactive", "inactive"]

Here are 2 substances. What values of amyloid nucleation score were reported for them?
1. SPVIKRYCILM
2. CGGGALLDICLPFICPVNGL

[reply]
["inactive", 0.843]

###

experiment: amyloid nucleation score (Sup35N fusion, yeast selection) (log enrichment); library NNK3; higher = more nucleation; inactive = no reads after selection
Quantity measured: amyloid nucleation score

# Substance, Val
measured = [
    ("YKVGRSHCGKKSEDLP", "inactive"),
    ("EFQNFLVSFYEMYLQSPK", "inactive"),
    ("CVVELHHVCRVPMCPFCWTV", "inactive"),
    ("RHNISFT", "inactive"),
    ("HWTLKMTVQHVFMLGASCRY", "inactive"),
    ("TRSVFIHVYW", 0.095),
    ("SGVGCKSLFWSSVAYMSIWG", "inactive"),
    ("LSSIWKGLRGLFIFFWHIKK", "inactive"),
]

Batch of 6 substances: report amyloid nucleation score for each.
1. VDRVYTLREFEVHGGTWFGV
2. LSGNCKYRTLWFIGPYSHFC
3. IRDLSLNQSGYFTFVTCWRC
4. RTECYVYKYDALDSRLGYCD
5. LRMGVNILLAMGCFSAYPGE
6. CQRYQALSNCPYSATWGSDT

[reply]
inactive
inactive
2.73
-0.18
0.171
inactive

Hi team, please reply with amyloid nucleation score for each item in this list.
1. QHAQGYLRGSTMYFEMM
2. WVQHISLWSTMWNGPREAPM
3. GFVIYLNVALLVRSNINRVC

[reply]
1. 0.357
2. inactive
3. inactive

Parameter requested: amyloid nucleation score. Apply to each item below.
1. DGDYSWGFVIRCHGPRSWSR
2. IKSGFW
3. GSNFICTFRVGKGYRPVCLE
4. EWTVNMNSYLLVSVAYGCGS

[reply]
1. inactive
2. inactive
3. inactive
4. inactive

For every record below, what is its amyloid nucleation score?
1. NVRGEENVKNILSGVL
2. AGKHFAHSGLFLVCNYTSRT
3. TNTNTCL
4. LAFYNQHWNFSMRSGMQGFK
5. HKWGCGL
6. EKNNNRDGTDAVVIGNHKAG
7. WDGLHVCLKSIIGGNSGLEK
8. SSAELV

[reply]
["inactive", "inactive", "inactive", 1.05, -0.539, "inactive", "inactive", "inactive"]

Can you give me amyloid nucleation score for all of these, one by one?
1. LSMPMAAGCFKHMPCAA
2. PRSVLINLLHRTHVCCRLFS
3. SPQVLDRWDQFKWKFVFRGS
4. EKKCIQRRFFYSVFNLMLSF

[reply]
1. -0.643
2. inactive
3. 0.584
4. -0.714

For every listed record, write down its amyloid nucleation score.
1. HELFRTSHRLRCYFNPHSHI
2. MTLCLLSFRGQRSMPLYLWT
3. KGCNYVNNSTAMLSRRSFYS
4. LLVSQLRYYWTATRNKFIF

[reply]
["inactive", "inactive", "inactive", "inactive"]

Required: amyloid nucleation score, one value per substance below.
1. YSDTFADNYLNCMHQVKCVN
2. SNSHVTKDLGVCRGLATCRG
3. LICNCHPRESSDPTFLCGLG
4. DGCGCKWTGACAMLSCHMYL

[reply]
1: inactive; 2: inactive; 3: inactive; 4: 1.41

For every item in the list below, what is its measured amyloid nucleation score?
1. YTFIIGIKHSTSSFNMSFSM
2. LGRKIRFFGYSGWGCMIREY
3. LRGMDYVCDEPLYVTLWVNR

[reply]
1: 0.613; 2: inactive; 3: inactive
